# study-target: Sucrase-isomaltase, intestinal (Homo sapiens, UniProt P14410)
# Sequence (P14410 2-1007 limits assumed): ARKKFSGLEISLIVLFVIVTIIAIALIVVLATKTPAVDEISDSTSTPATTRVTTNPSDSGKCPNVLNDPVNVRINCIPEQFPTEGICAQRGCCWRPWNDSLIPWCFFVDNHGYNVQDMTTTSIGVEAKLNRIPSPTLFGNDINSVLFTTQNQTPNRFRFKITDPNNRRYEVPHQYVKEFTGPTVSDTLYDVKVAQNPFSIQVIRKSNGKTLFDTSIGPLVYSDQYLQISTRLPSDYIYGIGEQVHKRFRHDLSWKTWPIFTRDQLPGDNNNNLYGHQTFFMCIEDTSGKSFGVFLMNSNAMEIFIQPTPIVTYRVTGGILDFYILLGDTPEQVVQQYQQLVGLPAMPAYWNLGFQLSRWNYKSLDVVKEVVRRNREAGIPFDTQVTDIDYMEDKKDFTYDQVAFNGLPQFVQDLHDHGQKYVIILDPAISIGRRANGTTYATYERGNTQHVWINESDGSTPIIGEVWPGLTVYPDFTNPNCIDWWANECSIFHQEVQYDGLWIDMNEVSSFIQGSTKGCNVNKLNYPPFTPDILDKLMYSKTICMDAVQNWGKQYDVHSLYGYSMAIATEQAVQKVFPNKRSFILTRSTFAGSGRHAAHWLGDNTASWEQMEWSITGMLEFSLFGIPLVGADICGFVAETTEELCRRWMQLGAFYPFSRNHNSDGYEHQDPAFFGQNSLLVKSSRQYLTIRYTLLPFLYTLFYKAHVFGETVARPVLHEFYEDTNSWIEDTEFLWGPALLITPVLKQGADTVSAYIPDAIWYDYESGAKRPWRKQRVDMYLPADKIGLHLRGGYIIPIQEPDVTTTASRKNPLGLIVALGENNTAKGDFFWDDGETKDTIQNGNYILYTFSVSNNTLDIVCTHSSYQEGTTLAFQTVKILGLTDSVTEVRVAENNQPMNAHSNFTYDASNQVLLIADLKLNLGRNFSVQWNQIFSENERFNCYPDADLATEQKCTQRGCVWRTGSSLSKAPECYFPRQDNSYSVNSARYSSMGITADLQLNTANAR
# Sequence (P14410 1008-1827 limits assumed): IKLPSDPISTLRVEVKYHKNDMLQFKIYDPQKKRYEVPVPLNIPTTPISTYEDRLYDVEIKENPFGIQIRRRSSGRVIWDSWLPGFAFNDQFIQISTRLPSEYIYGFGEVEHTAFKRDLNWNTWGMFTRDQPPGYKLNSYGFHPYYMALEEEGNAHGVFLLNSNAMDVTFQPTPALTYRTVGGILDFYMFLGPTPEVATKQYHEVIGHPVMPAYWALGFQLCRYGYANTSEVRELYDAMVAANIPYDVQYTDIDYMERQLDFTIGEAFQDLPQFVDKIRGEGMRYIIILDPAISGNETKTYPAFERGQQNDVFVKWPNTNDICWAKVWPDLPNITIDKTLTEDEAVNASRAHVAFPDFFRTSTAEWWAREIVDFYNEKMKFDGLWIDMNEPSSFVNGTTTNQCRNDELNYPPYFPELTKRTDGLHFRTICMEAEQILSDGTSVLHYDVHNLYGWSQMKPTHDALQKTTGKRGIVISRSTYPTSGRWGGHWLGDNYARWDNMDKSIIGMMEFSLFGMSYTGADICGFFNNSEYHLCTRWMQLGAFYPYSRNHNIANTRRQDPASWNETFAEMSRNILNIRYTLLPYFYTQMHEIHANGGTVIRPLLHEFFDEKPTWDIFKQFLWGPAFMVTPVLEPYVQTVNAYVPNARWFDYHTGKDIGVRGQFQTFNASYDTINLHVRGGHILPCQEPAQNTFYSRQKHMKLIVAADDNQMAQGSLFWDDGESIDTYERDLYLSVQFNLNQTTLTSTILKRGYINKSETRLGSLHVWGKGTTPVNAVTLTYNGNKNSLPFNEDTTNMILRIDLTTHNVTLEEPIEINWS
# assay-method-text: Inhibition of human recombinant C-terminal Sucrase-isomaltase by Lineweaver-Burk plot analysis
pKi: −log10 of the molar value.
measure: pKi

a = CO[C@@H]([C@H](O)[C@@H](O)CO)[C@H](O)C[S@+]1C[C@@H](O)[C@H](O)[C@H]1CO
b = OC[C@@H]1[C@@H](O)[C@H](O)C[S@@+]1C[C@@H](O)[C@@H](O)[C@H](O)[C@@H](O)CO.[Cl-]
Between the entries labeled a and b , whose measured pKi is lower? Answer = label. b

---

# study-target: UniProt:P14410
# assay-method-text: Inhibition of human recombinant N-terminal Sucrase-isomaltase by Lineweaver-Burk plot analysis
measure: Ki (nM)

1 = CO[C@@H]([C@H](O)[C@@H](O)CO)[C@H](O)C[S@+]1C[C@@H](O)[C@H](O)[C@H]1CO
2 = OC[C@@H]1[C@@H](O)[C@H](O)C[S@@+]1C[C@@H](O)[C@@H](O)[C@H](O)[C@@H](O)CO.[Cl-]
Between the two listed entries 1 and 2 , which has its Ki at the higher number? Answer = label. 2
